Give measured Ratio IC50 for each item. Keep answers brief.
# test: Selectivity index, ratio of IC50 for purified human red blood cell PP2A (unknown origin) to IC50 for purified rabbit skeletal muscle PP1
// keep it numeric: no unit symbol after the value

Qu. Requested field: Ratio IC50. Item: CCC(/C=C/C(=O)O)=C\[C@H](O)C[C@H](C)C[C@@H](C)CC[C@H](O)[C@H](C)C(=O)C[C@@H](O)[C@H](C)[C@@H](C)OC(=O)C[C@@H](O)C1=C(C)C(=O)OC1=O
Ans. 3.8

Qu. Now the molecule CCC(/C=C/C(=O)O)=C\CC[C@H](C)C[C@@H](C)CC[C@H](O)[C@H](C)C(=O)C[C@@H](O)[C@H](C)[C@@H](C)OC(=O)C[C@@H](O)C1=C(C)C(=O)OC1=O
Ans. 4

Qu. Follow-up entry: CC/C(=C\CC[C@H](C)C[C@@H](C)CC[C@H](O)[C@H](C)C(=O)C[C@@H](O)[C@H](C)[C@@H](C)OC(=O)C[C@@H](O)C1=C(C)C(=O)OC1=O)C(O)CC(=O)O (some centres undefined)
Ans. 3.8

Qu. Same again, this time with CCC(/C=C/C(=O)O)=C\[C@@H](O)C[C@H](C)C[C@@H](C)CC[C@H](O)[C@H](C)C(=O)C[C@@H](O)[C@H](C)[C@@H](C)OC(=O)C[C@@H](O)C1=C(C)C(=O)OC1=O
Ans. 4.5

---

# measured-target: Serine/threonine-protein phosphatase PP1-alpha catalytic subunit (Oryctolagus cuniculus)
# Sequence (P62139 whole entry): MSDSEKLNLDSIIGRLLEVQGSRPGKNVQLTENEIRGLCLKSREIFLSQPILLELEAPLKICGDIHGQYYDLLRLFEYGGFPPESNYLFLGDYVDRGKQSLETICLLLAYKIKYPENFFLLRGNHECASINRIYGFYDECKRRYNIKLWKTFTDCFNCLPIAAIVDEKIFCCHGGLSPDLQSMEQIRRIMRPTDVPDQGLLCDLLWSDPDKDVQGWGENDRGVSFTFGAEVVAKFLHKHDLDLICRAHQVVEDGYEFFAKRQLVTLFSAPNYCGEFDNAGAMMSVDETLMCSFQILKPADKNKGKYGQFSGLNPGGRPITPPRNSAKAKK
# test: Inhibition of purified rabbit skeletal muscle protein phosphatase 1 using DiFMUP substrate incubated for 30 mins
measurement-type: IC50 (µM)
Only the number, expressed in µM, is required.

Qu. Entry CCC(/C=C/C(=O)O)=C\C(=O)C[C@H](C)C[C@@H](C)CC[C@H](O)[C@H](C)C(=O)C[C@@H](O)[C@H](C)[C@@H](C)OC(=O)C[C@@H](O)C1=C(C)C(=O)OC1=O , system Serine/threonine-protein phosphatase PP1-alpha catalytic subunit (Oryctolagus cuniculus): what IC50 was measured?
Ans. 28
